Catalogue of Cmax readings, one per entry.
# Method Description: In vivo pharmacokinetics, oral, mice
# Set-up: species or system Balb/c mice
# Condition Summary: 5 mg/kg oral, plasma
Answer by giving the amount and then stating its unit.

C[C@]1(COc2ccc(N3CCC(Oc4ccc(OC(F)(F)F)cc4)CC3)cc2)Cn2cc([N+](=O)[O-])nc2O1 [OPC-67683, reference compound]	668 nM

Turning now to a further molecule:
Problem: Using known records, supply Cmax for C[C@]1(COc2ccc(-n3cc(COc4ccc(OC(F)(F)F)cc4)nn3)cc2)Cn2cc([N+](=O)[O-])nc2O1
Result: 1020 nM

====

# Test system: M. tuberculosis H37Rv (ATCC 27294)
# Method Description: MIC by broth dilution method, M. tuberculosis H37Rv
# Format: cell-based
# Condition Summary: Mycobacterium tuberculosis, 504 h, broth dilution, 3 weeks; read-out: MIC M. tb H37Rv
Catalogue of MIC readings, one per entry.
Express your answer in µg/mL, writing the number without its unit.

Before answering, review these 5 worked examples.
CCc1ccc(OCc2cn(-c3ccc(OC[C@@]4(C)Cn5cc([N+](=O)[O-])nc5O4)cc3)nn2)cc1 [IA31]	0.25
C[C@]1(COc2ccc(-n3cc(-c4ccccn4)nn3)cc2)Cn2cc([N+](=O)[O-])nc2O1 [IA14]	2
C[C@]1(COc2ccc(-n3cc(COc4ccc(C(F)(F)F)cc4)nn3)cc2)Cn2cc([N+](=O)[O-])nc2O1 [IA27]	0.25
C[C@]1(COc2ccc(-c3cc(COc4ccccc4F)on3)cc2)Cn2cc([N+](=O)[O-])nc2O1 [IC16]	0.5
CCc1ccc(-c2cc(-c3ccc(OC[C@@]4(C)Cn5cc([N+](=O)[O-])nc5O4)cc3)no2)cc1 [IC2]	2

Problem: Using known records, supply MIC for C[C@]1(COc2ccc(-n3cc(-c4ccc(OC(F)(F)F)cc4)nn3)cc2)Cn2cc([N+](=O)[O-])nc2O1 [IA5]
Result: 0.5

Problem: Using known records, supply MIC for CC(C)c1ccc(OCc2cn(-c3cccc(OC[C@@]4(C)Cn5cc([N+](=O)[O-])nc5O4)c3)nn2)cc1 [IA38]
Result: 4

Problem: Using known records, supply MIC for C[C@]1(COc2ccc(-c3cc(-c4cccc(F)c4)on3)cc2)Cn2cc([N+](=O)[O-])nc2O1 [IC8]
Result: 2

Problem: Using known records, supply MIC for CCc1ccc(-c2cn(-c3ccc(OC[C@@]4(C)Cn5cc([N+](=O)[O-])nc5O4)cc3)nn2)cc1 [IA2]
Result: 2

Problem: Using known records, supply MIC for C[C@]1(COc2ccccc2-n2cc(COc3ccc(C(F)(F)F)cc3)nn2)Cn2cc([N+](=O)[O-])nc2O1 [IA41]
Result: 2

Problem: Using known records, supply MIC for C[C@]1(COc2ccc(-n3cc(-c4ccccc4)nn3)cc2)Cn2cc([N+](=O)[O-])nc2O1 [IA1]
Result: 4
